# System: 616215-338-R-J1-PDC tumor spheroids, viability
# EXPERIMENTAL_PROTOCOL: Anticancer human tumor 616215-338-R-J1-PDC patient-derived colon adenocarcinoma cell line growth inhibition [GQUAD]
# EXPERIMENTAL_PARAMETERS: second compound 0.1 µM; first compound 0.1 µM; stronger effect = lower value; spheroids with HUVEC and MSC
# Text: DNA G-quadruplex Stabilizer Agents in Combinations in Complex Spheroids A high-throughput screen of multi-cell type tumor spheroids was designed to identify active combinations of DNA G-quadruplex stabilizer agents and targeted small molecules. […] Compounds. […] If the clinical Cmax for an agent had not been determined, the highest concentration tested was 10 microM. […]
READOUT_TYPE: viability, T/C (%)
Write the number in % without appending the unit.

Solved cases (4 shown):
MOLECULE	viability, T/C / %
CC1COCCN1c1cc(C2(S(C)(=N)=O)CC2)nc(-c2ccnc3[nH]ccc23)n1 (stereo unspecified) + Cc1[nH]c2ccc(F)cc2c1-c1nc2c3cccnc3c3ncccc3c2[nH]1	116
Nc1ccn(C2OC(CO)C(O)C2(F)F)c(=O)n1 (stereo unspecified) + CN(C)c1ccc(Nc2c3ccc(NC(=O)CCN4CCCC4)cc3nc3cc(NC(=O)CCN4CCCC4)ccc23)cc1	14.7
CC1COCCN1c1cc(C2(S(C)(=N)=O)CC2)nc(-c2ccnc3[nH]ccc23)n1 (stereo unspecified) + Cc1cnc(CNC(=O)c2c(=O)c3ccc(N4CCCN(C)CC4)nc3n3c2sc2ccccc23)cn1	73.4
C=CCn1c(=O)c2cnc(Nc3ccc(N4CCN(C)CC4)cc3)nc2n1-c1cccc(C(C)(C)O)n1 + CN(C)c1ccc(Nc2c3ccc(NC(=O)CCN4CCCC4)cc3nc3cc(NC(=O)CCN4CCCC4)ccc23)cc1	109

So what does the record say about viability, T/C for C=CC(=O)N1CCN(c2nc(=O)n(-c3c(C)ccnc3C(C)C)c3nc(-c4c(O)cccc4F)c(F)cc23)C(C)C1 (stereo unspecified) + Cc1cnc(CNC(=O)c2c(=O)c3ccc(N4CCCN(C)CC4)nc3n3c2sc2ccccc23)cn1 ?
73.9

Which viability, T/C value is on record for COc1ccc([C@@H](O)c2cc(-c3ncnc4cc(N5CCOCC5)ccc34)c(F)cc2Cl)nn1 + Cc1cnc(CNC(=O)c2c(=O)c3ccc(N4CCCN(C)CC4)nc3n3c2sc2ccccc23)cn1 ?
74.2

May I ask what viability, T/C has been recorded for C=CCn1c(=O)c2cnc(Nc3ccc(N4CCN(C)CC4)cc3)nc2n1-c1cccc(C(C)(C)O)n1 + Cc1[nH]c2ccc(F)cc2c1-c1nc2c3cccnc3c3ncccc3c2[nH]1 ?
99.9

Can you look up the measured viability, T/C of C=CC(=O)N1CCN(c2nc(=O)n(-c3c(C)ccnc3C(C)C)c3nc(-c4c(O)cccc4F)c(F)cc23)C(C)C1 (stereo unspecified) + Cc1[nH]c2ccc(F)cc2c1-c1nc2c3cccnc3c3ncccc3c2[nH]1 for me?
92.5

Any idea what its viability, T/C is? The molecule is O=C(NO)c1cnc(N2CCN(S(=O)(=O)c3ccc4ccccc4c3)CC2)nc1 + Cc1[nH]c2ccc(F)cc2c1-c1nc2c3cccnc3c3ncccc3c2[nH]1
94.8

====

# Test system: 616215-338-R-J1-PDC tumor spheroids, viability
# EXPERIMENTAL_PROTOCOL: Anticancer human tumor 616215-338-R-J1-PDC cell line growth inhibition [GQUAD];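 also: spheroids exposed to agents for 7 days before readout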;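 as to viability, T/C: percent viability relative to DMSO vehicle control wells taken as 100%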
# EXPERIMENTAL_PARAMETERS: second compound 0.1 µM; first compound 1 µM; stronger effect = lower value; spheroids with HUVEC and MSC
READOUT_TYPE: viability, T/C (%)
Report as a plain number; the unit % is understood.

COMPOUND	viability, T/C, %
CC1COCCN1c1cc(-c2ccnn2C)c2ccnc(-c3ccn[nH]3)c2n1 (stereo not given) + Cc1cnc(CNC(=O)c2c(=O)c3ccc(N4CCCN(C)CC4)nc3n3c2sc2ccccc23)cn1	25.7

Quick one: viability, T/C of CC(=O)O[C@H]1C(=O)[C@@]2(C)[C@H]([C@H](OC(=O)c3ccccc3)[C@]3(O)C[C@H](OC(=O)[C@H](O)[C@@H](NC(=O)c4ccccc4)c4ccccc4)C(C)=C1C3(C)C)[C@]1(OC(C)=O)CO[C@@H]1C[C@@H]2O + Cc1cnc(CNC(=O)c2c(=O)c3ccc(N4CCCN(C)CC4)nc3n3c2sc2ccccc23)cn1 ?
26.7

Fill in: viability, T/C of COc1ccc([C@@H](O)c2cc(-c3ncnc4cc(N5CCOCC5)ccc34)c(F)cc2Cl)nn1 + Cc1[nH]c2ccc(F)cc2c1-c1nc2c3cccnc3c3ncccc3c2[nH]1 is ___
104

Dear colleague, I am looking for the recorded viability, T/C of the following compound: CC(C)(O)C1CCC(Nc2ccc3ncc(-c4cccc(C(F)(F)F)c4)n3n2)CC1 (stereo not given) + Cc1cnc(CNC(=O)c2c(=O)c3ccc(N4CCCN(C)CC4)nc3n3c2sc2ccccc23)cn1
13.9

I'd like to know its viability, T/C. The compound in question is COc1cc(C2c3cc4c(cc3C(OC3OC5COC(C)OC5C(O)C3O)C3COC(=O)C23)OCO4)cc(OC)c1O (stereo not given) + CN(C)c1ccc(Nc2c3ccc(NC(=O)CCN4CCCC4)cc3nc3cc(NC(=O)CCN4CCCC4)ccc23)cc1
37.5

====

molecules and their reported pIC50
# Test system: 616215-338-R-J1-PDC tumor spheroids, viability
# EXPERIMENTAL_PROTOCOL: Anticancer human tumor 616215-338-R-J1-PDC cell line growth inhibition [GQUAD];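 also: spheroids exposed to agents for 7 days before readout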
# EXPERIMENTAL_PARAMETERS: curve of first compound; second compound 0.0316 µM; spheroids with HUVEC and MSC
# Text: DNA G-quadruplex Stabilizer Agents in Combinations in Complex Spheroids A high-throughput screen of multi-cell type tumor spheroids was designed to identify active combinations of DNA G-quadruplex stabilizer agents and targeted small molecules. […] Compounds. […] If the clinical Cmax for an agent had not been determined, the highest concentration tested was 10 microM. […]
The meaning of pIC50 here: minus log10 of the concentration in molar units.

// solved cases for pIC50 follow
MOLECULE	EXPERIMENTAL_RESULT
CC[C@@]1(O)C(=O)OCc2c1cc1n(c2=O)Cc2cc3c(CN(C)C)c(O)ccc3nc2-1 + Cc1cnc(CNC(=O)c2c(=O)c3ccc(N4CCCN(C)CC4)nc3n3c2sc2ccccc23)cn1	6.56
COc1cccc2c1C(=O)c1c(O)c3c(c(O)c1C2=O)CC(O)(C(=O)CO)CC3OC1CC(N)C(O)C(C)O1 (stereo unspecified) + Cc1cnc(CNC(=O)c2c(=O)c3ccc(N4CCCN(C)CC4)nc3n3c2sc2ccccc23)cn1	6.42
O=c1[nH]cc(F)c(=O)[nH]1 + Cc1cnc(CNC(=O)c2c(=O)c3ccc(N4CCCN(C)CC4)nc3n3c2sc2ccccc23)cn1	6.10
CCCS(=O)(=O)Nc1ccc(F)c(C(=O)c2c[nH]c3ncc(-c4ccc(Cl)cc4)cc23)c1F + CN(C)c1ccc(Nc2c3ccc(NC(=O)CCN4CCCC4)cc3nc3cc(NC(=O)CCN4CCCC4)ccc23)cc1	5.25

Any idea what its pIC50 is? The molecule is CCc1c2c(nc3ccc(O)cc13)-c1cc3c(c(=O)n1C2)COC(=O)[C@]3(O)CC + Cc1cnc(CNC(=O)c2c(=O)c3ccc(N4CCCN(C)CC4)nc3n3c2sc2ccccc23)cn1
8.01

====

Recorded viability, T/C, one value per entry.
# Test system: 616215-338-R-J1-PDC tumor spheroids, viability
# EXPERIMENTAL_PROTOCOL: Anticancer human tumor 616215-338-R-J1-PDC cell line growth inhibition [GQUAD];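 also: spheroids exposed to agents for 7 days before readout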;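 as to viability, T/C: percent viability relative to DMSO vehicle control wells taken as 100%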
# EXPERIMENTAL_PARAMETERS: second compound 10 µM; first compound 0.0316 µM; stronger effect = lower value; spheroids with HUVEC and MSC
Report the figure in % without appending any unit label.

Known viability, T/C results, listed for orientation:
COMPOUND	EXPERIMENTAL_RESULT
Nc1ccn(C2OC(CO)C(O)C2(F)F)c(=O)n1 (stereo unspecified) + Cc1[nH]c2ccc(F)cc2c1-c1nc2c3cccnc3c3ncccc3c2[nH]1	38.7
CCCS(=O)(=O)Nc1ccc(F)c(C(=O)c2c[nH]c3ncc(-c4ccc(Cl)cc4)cc23)c1F + CN(C)c1ccc(Nc2c3ccc(NC(=O)CCN4CCCC4)cc3nc3cc(NC(=O)CCN4CCCC4)ccc23)cc1	88.9
Nc1ccn(C2OC(CO)C(O)C2(F)F)c(=O)n1 (stereo unspecified) + CN(C)c1ccc(Nc2c3ccc(NC(=O)CCN4CCCC4)cc3nc3cc(NC(=O)CCN4CCCC4)ccc23)cc1	30.2
O=C(NO)c1cnc(N2CCN(S(=O)(=O)c3ccc4ccccc4c3)CC2)nc1 + Cc1[nH]c2ccc(F)cc2c1-c1nc2c3cccnc3c3ncccc3c2[nH]1	103
Cn1ncnc1[C@H]1c2n[nH]c(=O)c3cc(F)cc(c23)N[C@@H]1c1ccc(F)cc1 + Cc1[nH]c2ccc(F)cc2c1-c1nc2c3cccnc3c3ncccc3c2[nH]1	78.5
CCc1c2c(nc3ccc(O)cc13)-c1cc3c(c(=O)n1C2)COC(=O)[C@]3(O)CC + Cc1cnc(CNC(=O)c2c(=O)c3ccc(N4CCCN(C)CC4)nc3n3c2sc2ccccc23)cn1	5.75
COc1ncnc(C2CC2)c1-c1ncc2cnn(Cc3ccc(-c4nc(C(F)(F)F)cn4C(C)C)cc3)c2n1 + Cc1cnc(CNC(=O)c2c(=O)c3ccc(N4CCCN(C)CC4)nc3n3c2sc2ccccc23)cn1	13.8
Cc1[nH]c2ccccc2c1CCNCc1ccc(/C=C/C(=O)NO)cc1 + Cc1cnc(CNC(=O)c2c(=O)c3ccc(N4CCCN(C)CC4)nc3n3c2sc2ccccc23)cn1	17.7

If you can, please state the reported viability, T/C value of CCCS(=O)(=O)Nc1ccc(F)c(C(=O)c2c[nH]c3ncc(-c4ccc(Cl)cc4)cc23)c1F + Cc1[nH]c2ccc(F)cc2c1-c1nc2c3cccnc3c3ncccc3c2[nH]1 .
101

Which value of viability, T/C has been reported for O=C(NO)c1cnc(N2CCN(S(=O)(=O)c3ccc4ccccc4c3)CC2)nc1 + Cc1cnc(CNC(=O)c2c(=O)c3ccc(N4CCCN(C)CC4)nc3n3c2sc2ccccc23)cn1 in the records?
12.2

Item under review: COc1cc(C2c3cc4c(cc3C(OC3OC5COC(C)OC5C(O)C3O)C3COC(=O)C23)OCO4)cc(OC)c1O (stereo unspecified) + CN(C)c1ccc(Nc2c3ccc(NC(=O)CCN4CCCC4)cc3nc3cc(NC(=O)CCN4CCCC4)ccc23)cc1 . Reported viability, T/C?
97.2

What viability, T/C value was documented for this compound, Cn1ncnc1[C@H]1c2n[nH]c(=O)c3cc(F)cc(c23)N[C@@H]1c1ccc(F)cc1 + CN(C)c1ccc(Nc2c3ccc(NC(=O)CCN4CCCC4)cc3nc3cc(NC(=O)CCN4CCCC4)ccc23)cc1 ?
89
